# Species: Homo sapiens
# Test Protocol: Selectivity index, ratio of Ki for human A3 adenosine receptor to Ki for human A2A adenosine receptor
Measured Parameter: Ratio Ki

Here's what some known entries look like.
Query string: What does the data say about its Ratio Ki? Entry: CC(C)Nc1nc(NCc2ccccc2)n2nc(-c3ccco3)nc2n1
Result string: 0.29

Query string: What does the data say about its Ratio Ki? Entry: O=C(Cc1ccccc1)Nc1nc(NC2CCCCC2)nc2nc(-c3ccco3)nn12
Result string: 12.1

Query string: What does the data say about its Ratio Ki? Entry: CC(C)Nc1nc(NC(=O)c2ccccc2)n2nc(-c3ccco3)nc2n1
Result string: 6.23

Query string: What does the data say about its Ratio Ki? Entry: Fc1ccc(CNc2nc(NCc3ccccc3)nc3nc(-c4ccco4)nn23)cc1
Result string: 3.45

a: c1ccc(CNc2nc(NCc3ccccc3)n3nc(-c4ccco4)nc3n2)cc1
b: c1ccc(Oc2nc(NC3CCCCC3)n3nc(-c4ccco4)nc3n2)cc1
Query string: a or b : whose Ratio Ki is greater? Write down the label attached to your selection.
Result string: b
(b: 2.6, a: 1.81)

Numbers sourced from ChEMBL document CHEMBL3751698.
